Reference source: patent US9028845B2

# IFN-α mean values compiled below
test system: human PBMCs; experiment: Human PBMC cytokine response assay (IFN-γ and IFN-α in cell-free medium by ELISA), with or without cPLGA; type: cell-based; conditions: Example 58; 4 ug/ml; mean of four individuals
Strand notation (5' to 3'): a small letter for the sugar, then the base; units joined by * are phosphorothioate-linked, units joined directly phosphodiester-linked; [ ] holds rarer units or linkages, { } end groups; capitals alone tell only the bases. d = 2'-deoxy (DNA)
Respond with the bare value in pg/mL.

5′-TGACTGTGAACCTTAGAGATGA-3′ (SEQ ID NO: 3) (dT*dG*dA*dC*dT*dG*dT*dG*dA*dA*dC*dC*dT*dT*dA*dG*dA*dG*dA*dT*dG*dA) [Compound P-7, negative control, reference compound]: 52

Prompt: What does the data say about its IFN-α mean? Entry: 5′-TCGAACGTTCGA-3′ (SEQ ID NO: 155) (listed as DNA, chemistry not fully specified) [Compound P-17, reference compound]
Completion: 5228

Prompt: What does the data say about its IFN-α mean? Entry: (5′-TCGACGT-3′-HEG)2-glycerol-HEG-5′-TCGACGT-3′ [Compound C-101]
Completion: 92
